test: Aqueous solubility in assay buffer
Type: physicochemical
settings: assay buffer, aqueous buffer, in the buffer conditions of the assay
quantity_measured: solubility

Query: Given the molecule CC(NC(=O)c1ccccc1N=Cc1c(O)ccc2ccccc12)c1ccccc1 (stereo not shown) [Sirtinol (Hki1), reference compound] , what is its reported solubility?
Result: < 50 µM

###

# IC50 listing for each entry below
measurement_target: HEG1-KRIT1 interaction (Homo sapiens)
Construct: His6-EGFP-KRIT1 (WT) FERM domain (417-736) and KRIT1 (L717,721A) mutant were cloned into pETM-11; His6 (N); made in house; host or cells: E. coli BL21 Star (DE3)
test: Flow cytometry assay for the HEG1-KRIT1 FERM domain interaction (competition binding on HEG1 matrix beads)
settings: Table 2; flow cytometry-screening assay; NI = no inhibition detected up to 500 μM; read-out: IC50
A number alone suffices; assume µM.

Recorded IC50, per entry:
{"compound": "CCCCc1ccc2c(C=O)c(O)ccc2c1 [BL-0743, 6-Butyl-2-hydroxy-1-naphthaldehyde]", "quantity_measured": "IC50", "measurement": 78.8}
{"compound": "CN(C)c1ccc2c(C=O)c(O)ccc2c1 [BL-0737]", "quantity_measured": "IC50", "measurement": 2.6}
{"compound": "Cc1ccc2c(C=O)c(O)ccc2c1 [BL-0666 (HKi8), 2-hydroxy-6-methyl-1-naphthaldehyde]", "quantity_measured": "IC50", "measurement": 5.1}
{"compound": "COc1cccc2ccc(O)c(C=O)c12 [BL-0691, 2-hydroxy-8-methoxy-1-naphthaldehyde]", "quantity_measured": "IC50", "measurement": 18}
{"compound": "O=Cc1c(O)ccc2cc(-c3ccccc3)ccc12 [BL-0818, 2-Hydraxy-6-phenyl-1-naphthaldehyde]", "quantity_measured": "IC50", "measurement": 3}

Query: Given the compound O=C(O)c1ccccc1/N=C/c1c(O)ccc2ccccc12 [BL-0547 (Hki3)] , what is its reported IC50?
Result: 2.9

Query: Given the compound CC#Cc1ccc2c(C=O)c(O)ccc2c1 [BL-0817] , what is its reported IC50?
Result: 15

Query: Given the compound O=Cc1c(O)ccc2cc(-c3cccs3)ccc12 [BL-0819] , what is its reported IC50?
Result: 1.2

Query: Given the compound O=Cc1c(O)ccc2cc(N3CCC3=O)ccc12 [BL-0738] , what is its reported IC50?
Result: 30.3

###

test: log P
Assay type: physicochemical
settings: method not stated (FIG. 2A)
quantity_measured: logP
Returns: the value as a bare number; no unit string appended.

Query: Given the compound CC(NC(=O)c1ccccc1N=Cc1c(O)ccc2ccccc12)c1ccccc1 (stereo not shown) [Sirtinol (Hki1), reference compound] , what is its reported logP?
Result: 5.7

###

measurement_target: HEG1-KRIT1 interaction (Homo sapiens, UniProt O00522)
Construct: His6-EGFP-KRIT1 (WT) FERM domain (417-736) and KRIT1 (L717,721A) mutant were cloned into pETM-11; His6 (N); made in house; host or cells: E. coli BL21 Star (DE3)
Sequence (O00522 417-736): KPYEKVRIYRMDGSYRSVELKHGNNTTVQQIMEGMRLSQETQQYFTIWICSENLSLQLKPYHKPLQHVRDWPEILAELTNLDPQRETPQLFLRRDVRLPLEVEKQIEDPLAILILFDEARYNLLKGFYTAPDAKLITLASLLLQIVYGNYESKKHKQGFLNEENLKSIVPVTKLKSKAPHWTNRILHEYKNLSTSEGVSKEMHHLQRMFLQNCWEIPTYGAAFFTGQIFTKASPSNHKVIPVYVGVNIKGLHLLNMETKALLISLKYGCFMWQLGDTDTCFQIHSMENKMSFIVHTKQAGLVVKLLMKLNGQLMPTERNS
test: Flow cytometry assay for the HEG1-KRIT1 FERM domain interaction (competition binding on HEG1 matrix beads)
settings: Table 2; flow cytometry-screening assay; NI = no inhibition detected up to 500 μM; read-out: IC50
quantity_measured: pIC50
Conceptually, pIC50 converts a concentration in mol/L into minus its log10.

{"compound": "O=Cc1c(O)ccc2cccc(O)c12 [BL-0693, 2,8-dihydroxy-1-naphthaldehyde]", "pIC50": 4.35}

Query: Given the compound O=Cc1cc(-c2ccccc2)ccc1O [BL-0628 (HKi4), 4-Hydroxy-[1,1′-biphenyl]-3-carbaldehyde] , what is its reported pIC50?
Result: 4.66

Query: Given the compound CCc1ccc2c(C=O)c(O)ccc2c1 [BL-0740, 6-Ethyl-2-hydroxy-1-naphthaldehyde] , what is its reported pIC50?
Result: 5.41

Query: Given the compound CC(=O)c1ccc2c(C=O)c(O)ccc2c1 [BL-0700 (HKi9), 6-acetyl-2-hydroxy-1-naphthaldehyde] , what is its reported pIC50?
Result: 4.23

Query: Given the compound O=C(O)c1ccc(/N=C/c2c(O)ccc3ccccc23)cc1 , what is its reported pIC50?
Result: 5.74

Query: Given the compound C#Cc1ccc2c(C=O)c(O)ccc2c1 [BL-0742, 6-Ethynyl-2-hydroxy-1-naphthaldehyde] , what is its reported pIC50?
Result: 5.40

###

measurement_target: HEG1-KRIT1 interaction (Homo sapiens)
Construct: His6-EGFP-KRIT1 (WT) FERM domain (417-736) and KRIT1 (L717,721A) mutant were cloned into pETM-11; His6 (N); made in house; host or cells: E. coli BL21 Star (DE3)
test: Flow cytometry assay for the HEG1-KRIT1 FERM domain interaction (competition binding on HEG1 matrix beads)
settings: Table 2; flow cytometry-screening assay; NI = no inhibition detected up to 500 μM; read-out: IC50
# IC50 listing for each entry below
A number alone suffices; assume µM.

{"molecule": "CCOc1ccc2c(C=O)c(O)ccc2c1 [BL-0794, 6-Ethoxy-2-hydroxy-1-naphthaldehyde]", "IC50 (µM)": 4.6}

Query: Given the molecule O=Cc1c(O)ccc2cc(N3CCCCC3)ccc12 , what is its reported IC50?
Result: 28.8

Query: Given the molecule CCOC(=O)/C=C/c1ccc2c(C=O)c(O)ccc2c1 , what is its reported IC50?
Result: 79.3

Query: Given the molecule N#Cc1ccc2c(C=O)c(O)ccc2c1 [BL-0788, 5-Formyl-6-hydroxy-2-naphthonitrile] , what is its reported IC50?
Result: 3.6

Query: Given the molecule CC(O)c1ccc2c(C=O)c(O)ccc2c1 (stereo not drawn) , what is its reported IC50?
Result: 31.9

###

measurement_target: HEG1-KRIT1 interaction (Homo sapiens, UniProt O00522)
Construct: His6-EGFP-KRIT1 (WT) FERM domain (417-736) and KRIT1 (L717,721A) mutant were cloned into pETM-11; His6 (N); made in house; host or cells: E. coli BL21 Star (DE3)
test: Flow cytometry assay for the HEG1-KRIT1 FERM domain interaction (competition binding on HEG1 matrix beads)
settings: inhibition of the HEG1-KRIT1 interaction, flow cytometry assay; read-out: IC50
pIC50: −log10 of the molar value.
quantity_measured: pIC50

Query: Given the molecule CC(NC(=O)c1ccccc1N=Cc1c(O)ccc2ccccc12)c1ccccc1 (stereo not shown) [Sirtinol (Hki1), reference compound] , what is its reported pIC50?
Result: ~5.00

###

measurement_target: HEG1-KRIT1 interaction (Homo sapiens)
Construct: His6-EGFP-KRIT1 (WT) FERM domain (417-736) and KRIT1 (L717,721A) mutant were cloned into pETM-11; His6 (N); made in house; host or cells: E. coli BL21 Star (DE3)
test: Flow cytometry assay for the HEG1-KRIT1 FERM domain interaction (competition binding on HEG1 matrix beads)
settings: Table 2; flow cytometry-screening assay; NI = no inhibition detected up to 500 μM; read-out: IC50
# pIC50 listing for each entry below
Conceptually, pIC50 converts a concentration in mol/L into minus its log10.

Recorded pIC50, per entry:
{"compound": "C=CCc1ccc2c(C=O)c(O)ccc2c1 [BL-0739, 6-Allyl-2-hydroxy-1-naphthaldehyde]", "quantity_measured": "pIC50", "measurement": 5.96}
{"compound": "O=C(O)c1cccc(/N=C/c2c(O)ccc3ccccc23)c1", "quantity_measured": "pIC50", "measurement": 5.49}
{"compound": "O=Cc1c(O)ccc2cc(Cl)ccc12 [BL-702 (Hki10), 6-chloro-2-hydroxy-1-naphthaldehyde]", "quantity_measured": "pIC50", "measurement": 5.49}
{"compound": "Oc1ccc2c(/C=N/c3ccccc3)c(O)ccc2c1", "quantity_measured": "pIC50", "measurement": 4.49}

Lab note: next compound to report on.
Query: Given the compound Oc1ccc2ccccc2c1/C=N/c1nn[nH]n1 , what is its reported pIC50?
Result: 5.49
